test: Passive permeability of the compound by PAMPA; type: physicochemical; conditions: read-out: permeability
Label yes (1) when Papp is strictly below 0.6 ×10⁻⁶ cm/s; at or above that, label no (0).

## Task Determine if `COc1c(COc2ccc(NS(C)(=O)=O)cc2)cc(N2CCC(=O)NC2=O)cc1C(C)(C)C` shows Papp strictly lower than 0.6 ×10⁻⁶ cm/s.
## Result no (0)

## Task Now give it for `COc1c(/C=C(\C)c2ccc([N+](=O)[O-])cc2)cc(N2CCC(=O)NC2=O)cc1C(C)(C)C` too.
## Result yes (1)

## Task Now give it for `COc1c(/C=C/c2ccc(NS(C)(=O)=O)cc2)cc(N2CCC(=O)NC2=O)cc1C(C)(C)C` too.
## Result no (0)

## Task Now give it for `COc1c(C(=O)Nc2ccc(NS(C)(=O)=O)cc2)cc(N2CCC(=O)NC2=O)cc1C(C)(C)C` too.
## Result yes (1)

## Task Now give it for COc1c(C2CC2c2ccc(NS(C)(=O)=O)cc2)cc(N2CCC(=O)NC2=O)cc1C(C)(C)C (stereo not given) too.
## Result no (0)

====

test: Cmax in human at 80 mg administered as single dose; format: ADME; design: dose 80 mg; conditions: in vivo
MEASURE_NAME: Cmax (ng/mL)
Give the number; ng/mL is assumed, so skip it.

## Task Reported Cmax, compound `COc1c(/C=C/c2ccc(NS(C)(=O)=O)cc2)cc(-n2ccc(=O)[nH]c2=O)cc1C(C)(C)C` : ____
## Result 180

====

experiment: Oral bioavailability in dog at 30 mg/kg; type: ADME, organism-based, Canis lupus familiaris; conditions: in vivo
MEASURE_NAME: bioavailability (%)
Give the number; % is assumed, so skip it.

## Task Reported bioavailability, compound COc1c(/C=C/c2ccc(NS(C)(=O)=O)cc2)cc(-n2ccc(=O)[nH]c2=O)cc1C(C)(C)C [ABT-072] : ____
## Result 61

====

assay: Half life in Sprague-Dawley rat at 5 mg/kg, iv; assay type: ADME, organism-based; conditions: in vivo
MEASURE_NAME: half-life (h)
Give the number; h is assumed, so skip it.

## Task Reported half-life, compound `COc1c(/C=C/c2ccc(NS(C)(=O)=O)cc2)cc(-n2ccc(=O)[nH]c2=O)cc1C(C)(C)C` : ____
## Result 2.9

====

experiment: AUC (0 to 24 hrs) in human infected with HCV genotype 1 at 160 mg administered once daily for 2 days; type: ADME; design: time < 24 hr, dose 160 mg; conditions: in vivo
MEASURE_NAME: AUC at 24 h (ng·h/mL)
Give the number; ng·h/mL is assumed, so skip it.

## Task Reported AUC at 24 h, compound `COc1c(/C=C/c2ccc(NS(C)(=O)=O)cc2)cc(-n2ccc(=O)[nH]c2=O)cc1C(C)(C)C` : ____
## Result 4180

====

assay: Tmax in human at 80 mg administered as single dose; type: ADME; conditions: in vivo
MEASURE_NAME: Tmax (h)
Give the number; h is assumed, so skip it.

## Task Reported Tmax, compound `COc1c(/C=C/c2ccc(NS(C)(=O)=O)cc2)cc(-n2ccc(=O)[nH]c2=O)cc1C(C)(C)C` : ____
## Result 5.1

====

assay: Cmax in dog at 30 mg/kg, po; type: ADME, organism-based, Canis lupus familiaris; parameters: dose 30 mg/kg, route oral; settings: in vivo
MEASURE_NAME: Cmax (ng/mL)
Give the number; ng/mL is assumed, so skip it.

## Task Reported Cmax, compound `COc1c(/C=C/c2ccc(NS(C)(=O)=O)cc2)cc(-n2ccc(=O)[nH]c2=O)cc1C(C)(C)C` : ____
## Result 7560

====

assay: Stability in human liver microsomes assessed as parent compound remaining after 30 mins; assay type: ADME, microsome; details: read-out: Stability
MEASURE_NAME: remaining at 0.5 h (%)
Give the number; % is assumed, so skip it.

## Task Reported remaining at 0.5 h, compound `COc1c(CNc2ccc(NS(C)(=O)=O)cc2)cc(N2CCC(=O)NC2=O)cc1C(C)(C)C` : ____
## Result 67

## Task Now give it for `COc1c(/C=C(\C)c2ccc([N+](=O)[O-])cc2)cc(N2CCC(=O)NC2=O)cc1C(C)(C)C` too.
## Result 18.5

## Task Now give it for `COc1c(CCc2ccc(NS(C)(=O)=O)cc2)cc(N2CCC(=O)NC2=O)cc1C(C)(C)C` too.
## Result 2.5

## Task Now give it for `COc1c(/C=C/c2ccc(NS(C)(=O)=O)cc2)cc(N2CCC(=O)NC2=O)cc1C(C)(C)C` too.
## Result 48.1

## Task Now give it for COc1c(C2CC2c2ccc(NS(C)(=O)=O)cc2)cc(N2CCC(=O)NC2=O)cc1C(C)(C)C (stereo unspecified) too.
## Result 26.5

====

experiment: Passive permeability of the compound by PAMPA; format: physicochemical; conditions: read-out: permeability
Is Papp at least 0.4 ×10⁻⁶ cm/s? Then Met. If not, Not met.

## Task Given `COc1c(C(=O)N(C)c2ccc(NS(C)(=O)=O)cc2)cc(N2CCC(=O)NC2=O)cc1C(C)(C)C` , state whether its Papp is at least 0.4 ×10⁻⁶ cm/s.
## Result Not met

## Task Now give it for `COc1c(C#Cc2ccc(NS(C)(=O)=O)cc2)cc(N2CCC(=O)NC2=O)cc1C(C)(C)C` too.
## Result Met

## Task Now give it for `COc1c(CCc2ccc(NS(C)(=O)=O)cc2)cc(N2CCC(=O)NC2=O)cc1C(C)(C)C` too.
## Result Met

## Task Now give it for `COc1c(NC(=O)c2ccc(NS(C)(=O)=O)cc2)cc(N2CCC(=O)NC2=O)cc1C(C)(C)C` too.
## Result Not met

====

Hi there, I'd appreciate the recorded pIC50 for every entry that follows.
assay: Inhibition of HCV genotype 1a H77 NS5B RNA dependent RNA polymerase assessed as reduction in [3H]UTP incorporation in to RNA preincubated for 15 mins followed by [3H]UTP addition measured after 3 hrs by microbeta scintillation counting method; set-up: species or system Hepatitis C virus (isolate H77)
// pIC50 is dimensionless: -log10 of concentration (M)

## Task Reported pIC50, compound COc1c(C2CC2c2ccc(NS(C)(=O)=O)cc2)cc(N2CCC(=O)NC2=O)cc1C(C)(C)C (centres undefined) : ____
## Result 6.57

## Task Now give it for `COc1c(CNc2ccc(NS(C)(=O)=O)cc2)cc(N2CCC(=O)NC2=O)cc1C(C)(C)C` too.
## Result 7.10

## Task Now give it for `COc1c(C(=O)Nc2ccc(NS(C)(=O)=O)cc2)cc(N2CCC(=O)NC2=O)cc1C(C)(C)C` too.
## Result 7.97

## Task Now give it for `COc1c(C(=O)N(C)c2ccc(NS(C)(=O)=O)cc2)cc(N2CCC(=O)NC2=O)cc1C(C)(C)C` too.
## Result 6.85
